- Assay Info: Biodistribution of 177Lu-labeled αMSH analogues in mice bearing B16F10 mouse melanoma
- Assay type: in vivo, C57BL/6J mice
- Setup Conditions: mouse, blood, iv, total radioactivity; 4 h p.i., C57BL/6J mice, B16F10 melanoma; read-out: Biodistribution, Blood
Reported Metric: tissue uptake at 4 h (%ID/g)
Output spec: scalar in %ID/g, unitless text.

For the compound CCCC[C@H](NC(=O)CN1CCC(NC(=O)CN2CCN(CC(=O)O)CCN(CC(=O)O)CCN(CC(=O)O)CC2)CC1)C(=O)N[C@H]1CC(=O)NCCCC[C@@H](C(N)=O)N(C)C(=O)[C@H](Cc2c[nH]c3ccccc23)NC(=O)[C@H](CCCNC(=N)N)N(C)C(=O)[C@@H](Cc2ccccc2)NC(=O)[C@H](Cc2c[nH]cn2)NC1=O [^177Lu-labeled CCZ01106, metal not drawn] , what tissue uptake at 4 h is on record?
0.02
